tested on: P12-Ichikawa; experiment: cell viability relative to DMSO control; higher = less cytotoxic; conditions: RPMI 5 mM glucose + 10% dialyzed FBS; 48 h; 0.000781 µM
value_kind: cell viability

{"compound": "COc1ccc(-c2nc3cc(C4=NNC(=O)CC4C)ccc3[nH]2)cc1 (centres undefined)", "value_kind": "cell viability", "experimental_value": "88.3%"}
{"compound": "COc1ccc([C@@H]2CNC(=O)C2)cc1OC1CCCC1", "value_kind": "cell viability", "experimental_value": "99.1%"}
{"compound": "COc1cc2nc(-c3ccc(N4CCN(C)CC4)cc3)nc(NCCN3CCOCC3)c2cc1OC", "value_kind": "cell viability", "experimental_value": "113%"}
{"compound": "CCC(CC)[C@H](NC(C)=O)[C@@H]1[C@H](O)[C@@H](C(=O)O)C[C@H]1NC(=N)N", "value_kind": "cell viability", "experimental_value": "75.7%"}
{"compound": "CN(C)c1ccc(C(=O)NCCCCCCC(=O)NO)cc1", "value_kind": "cell viability", "experimental_value": "94.9%"}
{"compound": "N/C(=N\\C(=O)c1nc(Cl)c(N)nc1N)NCc1ccccc1", "value_kind": "cell viability", "experimental_value": "82.5%"}
{"compound": "COc1cc(N2CCC(N3CCN(C)CC3)CC2)ccc1Nc1ncnc(Nc2ccccc2[S+](=O)([O-])C(C)C)n1", "value_kind": "cell viability", "experimental_value": "112%"}
{"compound": "C=C1C[C@@]2(O)O[C@@]3(C[C@H]2C(C)C)[C@@H](C)CC[C@@H]13", "value_kind": "cell viability", "experimental_value": "112%"}
{"compound": "C[C@@]12OC(=O)[C@@]1(NC(=O)[C@@H]2CCCl)[C@@H](O)[C@H]\\3CCC\\C=C3", "value_kind": "cell viability", "experimental_value": "94%"}

----------
tested on: SEM cells; assay: cell viability relative to DMSO control; higher = less cytotoxic; conditions: RPMI 5 mM glucose + 10% FBS; 48 h; 46.1 µM
value_kind: cell viability

{"compound": "CCC(=O)O[C@@]1([C@H](C)C[C@H]2[C@@H]3C[C@H](F)\\C4=C\\C(=O)\\C=C/[C@]4(C)[C@@]3(F)[C@@H](O)C[C@]12C)C(=O)SCF", "experimental_value": "59.6%"}
{"compound": "c1ccc2c(Oc3nc(Nc4ccc(N5CCOCC5)cc4)c4ncn(C5CCCCC5)c4n3)cccc2c1", "experimental_value": "67%"}
{"compound": "c1cc(-c2sc(-c3ccncc3)c(-c3ccncc3)c2-c2ccncc2)ccn1", "experimental_value": "13.2%"}
{"compound": "CC(=O)SCC(Cc1ccccc1)C(=O)NCC(=O)OCc1ccccc1 (centres undefined)", "experimental_value": "90.1%"}
{"compound": "CN(C(=O)c1ccc(F)cc1C(F)(F)F)C1CCN(c2nnc(-c3ccnn3C)c3ccccc23)CC1", "experimental_value": "59.8%"}
{"compound": "COc1ccc(-c2c(-c3ccc(O)cc3O)n[nH]c2C)cc1", "experimental_value": "20.9%"}
{"compound": "Clc1ccc(COC(Cn2ccnc2)c2ccc(Cl)cc2Cl)cc1 (centres undefined)", "experimental_value": "82%"}
{"compound": "Cc1cnc(Nc2ccc(OCCN3CCCC3)cc2)nc1Nc1cccc([S+](=O)([O-])NC(C)(C)C)c1", "experimental_value": "77.2%"}
{"compound": "CN(C)C(=O)COC(=O)Cc1ccc(OC(=O)c2ccc(NC(=N)N)cc2)cc1", "experimental_value": "61.7%"}

----------
test system: SEM cells; assay: AUC of viability dose-response curve (% viability x log10 dose units); higher = less sensitive; settings: HPLM + 10% dialyzed FBS; 48 h
AUC of viability dose-response curve values for the molecules below.

{"molecule": "Cc1cnc(Nc2ccc(OCCN3CCCC3)cc2)nc1Nc1cccc([S+](=O)([O-])NC(C)(C)C)c1", "AUC of viability dose-response curve": 427}
{"molecule": "COc1ccc(Cn2ccc3ccc(C(=O)NO)cc32)cc1", "AUC of viability dose-response curve": 464}
{"molecule": "C[C@@H]1O[C@@H](O[C@H]\\2CC[C@]\\3(C)[C@@H]4CC[C@]5(C)[C@@H](CC[C@@]5(O)[C@H]4CCC3=C2)C/6=C/OC(=O)/C=C6)[C@H](O)[C@H](O)[C@@H]1O", "AUC of viability dose-response curve": 173}
{"molecule": "C[C@H]([C@H]1C\\C(=C(CO)/C(=O)O1)C)[C@H]2CC[C@H]3[C@@H]4C[C@H]5O[C@]56[C@@H](O)\\C=C/C(=O)[C@]6(C)[C@H]4CC[C@]23C", "AUC of viability dose-response curve": 259}
{"molecule": "N/C(=N\\C(=O)c1nc(Cl)c(N)nc1N)NCc1ccccc1", "AUC of viability dose-response curve": 449}
{"molecule": "COC(=O)C/1=C/O[C@@H](O)[C@H]\\2[C@@H]1C\\C=C2CO", "AUC of viability dose-response curve": 465}
{"molecule": "COc1ccc(-c2c(-c3ccc(O)cc3O)n[nH]c2C)cc1", "AUC of viability dose-response curve": 428}
{"molecule": "Cn1cc(-c2ccc3ncc(Cc4ccc5ncccc5c4)n3n2)cn1", "AUC of viability dose-response curve": 450}
{"molecule": "CN(C)[C@H]\\1[C@@H]2[C@@H](O)[C@@H]\\3C(=C)C4=C(C(=CC=C4)O)C(=O)C3=C(\\O)[C@@]2(O)C(=O)\\C(=C1O)C(N)=O", "AUC of viability dose-response curve": 452}
{"molecule": "CC(C)[C@H](CO)Nc1nc(Nc2ccc(C(=O)O)c(Cl)c2)c2ncn(C(C)C)c2n1", "AUC of viability dose-response curve": 428}
{"molecule": "C/C=C(/C(=C/C)c1ccc(O)cc1)c1ccc(O)cc1", "AUC of viability dose-response curve": 464}
{"molecule": "CCN1CCN(Cc2ccc(-c3cc4c(N[C@H](C)c5ccccc5)ncnc4[nH]3)cc2)CC1", "AUC of viability dose-response curve": 384}
{"molecule": "COc1cc(/C=C/C(=O)CC(=O)/C=C/c2ccc(O)c(OC)c2)ccc1O", "AUC of viability dose-response curve": 406}
{"molecule": "O=C(C1CCCCC1)N1CC(=O)N2CCc3ccccc3C2C1 (configuration not stated)", "AUC of viability dose-response curve": 434}
{"molecule": "COC1=C(OC)C(=O)C(C/C=C(\\C)CC/C=C(\\C)CC/C=C(\\C)CC/C=C(\\C)CC/C=C(\\C)CC/C=C(\\C)CC/C=C(\\C)CC/C=C(\\C)CC/C=C(\\C)CCC=C(C)C)=C(C)C1=O", "AUC of viability dose-response curve": 442}
{"molecule": "c1ccc2c(-c3cnn4cc(-c5ccc(N6CCNCC6)cc5)cnc34)ccnc2c1", "AUC of viability dose-response curve": 355}
{"molecule": "CC(C)(O)CNc1nc(Nc2ccnc(C(F)(F)F)c2)nc(-c2cccc(C(F)(F)F)n2)n1", "AUC of viability dose-response curve": 408}
{"molecule": "CCCn1c(=O)c2[nH]c(C34CC5CC3C[C@@H](C5)C4)nc2n(CCC)c1=O", "AUC of viability dose-response curve": 477}
{"molecule": "CCOc1ccccc1OCCNC(C)Cc1ccc(OC)c([S+](N)(=O)[O-])c1 (configuration not stated)", "AUC of viability dose-response curve": 459}
{"molecule": "COC1=CC=C(C=C1)C/2=C/OC3=CC(=CC=C3C2=O)O", "AUC of viability dose-response curve": 445}
{"molecule": "c1ccc(-c2nn3c(c2-c2ccnc4cc(OCCN5CCOCC5)ccc24)CCC3)nc1", "AUC of viability dose-response curve": 458}
{"molecule": "CCCCOc1ccc(C(=O)Nc2ccc(F)cc2F)cc1", "AUC of viability dose-response curve": 377}
{"molecule": "CN(C)c1nc(N(C)C)nc(N(C)C)n1", "AUC of viability dose-response curve": 465}
{"molecule": "CC1=CC2=C(O1)C(=C3OC(=O)\\C=C(C)/C3=C2)C", "AUC of viability dose-response curve": 404}
{"molecule": "CCOC(=O)c1ncn2c1CN(C)C(=O)c1cc(F)ccc1-2", "AUC of viability dose-response curve": 421}
{"molecule": "C[C@H]1[C@@H](CC(C[C@H]2O[C@@H]3O[C@]4(C)CC[C@H]5[C@H](C)CC[C@@H]([C@H]2C)[C@@]35OO4)C[S+](=O)([O-])c2ccc(COC(=O)N(C)C)cc2)O[C@@H]2O[C@]3(C)CC[C@H]4[C@H](C)CC[C@@H]1[C@@]24OO3", "AUC of viability dose-response curve": 297}
{"molecule": "O=C(c1ccc(F)cc1)C1CCN(CCn2c(=O)[nH]c3ccccc3c2=O)CC1", "AUC of viability dose-response curve": 469}
{"molecule": "Cc1nc2c([nH]1)-c1ccccc1N(C(=O)c1ccc(NC(=O)c3ccccc3-c3ccccc3)cc1)CC2", "AUC of viability dose-response curve": 451}
{"molecule": "CC(C)c1ccc2oc3nc(N)c(C(=O)O)cc3c(=O)c2c1", "AUC of viability dose-response curve": 466}
{"molecule": "Nc1ccc([S+](=O)([O-])Nc2ccccn2)cc1", "AUC of viability dose-response curve": 438}
{"molecule": "CC(C)(C)C1=NC2=C([NH]1)C3=CC=C(F)C=C3C4=C2\\C=C/NC4=O", "AUC of viability dose-response curve": 384}
{"molecule": "COC1=CC=C2C(=CC=NC2=C1)OC3=CC=C(NC(=O)\\C4=C(C)\\N(CC(C)(C)O)N(C4=O)C5=CC=CC=C5)C=C3F", "AUC of viability dose-response curve": 404}
